These data points were gathered from the RNAGym collection of RNA variant scans (doi:10.1101/gr.219683.116).

B1: mRNA-splicing (parent)
chain: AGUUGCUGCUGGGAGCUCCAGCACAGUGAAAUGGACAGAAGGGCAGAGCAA

Variants of: B1
TEST NAME: exon inclusion enrichment index; higher = more inclusion; WT1 exon 5 minigene, HEK293
Please use 1.0 whenever exon inclusion enrichment index is not below 0.3, and 0.0 whenever it is.

q: Reported exon inclusion enrichment index reaches at least 0.3 for C6A U7A C9A U10A U17C C18G ?
a: 1.0

q: Reported exon inclusion enrichment index reaches at least 0.3 for `A45U` ?
a: 1.0

q: Reported exon inclusion enrichment index reaches at least 0.3 for G5C C6A U7C G8A U10A G34C A35U ?
a: 0.0

q: Reported exon inclusion enrichment index reaches at least 0.3 for G5C C6A U7C G8A U10A C16A U17G ?
a: 0.0

q: Reported exon inclusion enrichment index reaches at least 0.3 for G5A U7C G8A U10C G38C A39G ?
a: 1.0

q: Reported exon inclusion enrichment index reaches at least 0.3 for G12A G13A ?
a: 1.0

q: Reported exon inclusion enrichment index reaches at least 0.3 for G38C A39G ?
a: 0.0

q: Reported exon inclusion enrichment index reaches at least 0.3 for `G13A` ?
a: 0.0

q: Reported exon inclusion enrichment index reaches at least 0.3 for G5C U7A G8A U10A ?
a: 0.0

q: Reported exon inclusion enrichment index reaches at least 0.3 for G5C C6A U7C G8A U10A C18A C19G ?
a: 0.0

q: Reported exon inclusion enrichment index reaches at least 0.3 for `C19G` ?
a: 1.0

q: Reported exon inclusion enrichment index reaches at least 0.3 for G5C C6U U7G G8U C9U U10C ?
a: 1.0

q: Reported exon inclusion enrichment index reaches at least 0.3 for G5C C6U G8C C9U U10C A45G ?
a: 1.0

q: Reported exon inclusion enrichment index reaches at least 0.3 for C6A U7C C9A U10C G33A G34C ?
a: 1.0

q: Reported exon inclusion enrichment index reaches at least 0.3 for G2A U3C C6A U7C C9A U10C ?
a: 1.0

q: Reported exon inclusion enrichment index reaches at least 0.3 for G5A C6U U7A G8U C9A A37U ?
a: 0.0

q: Reported exon inclusion enrichment index reaches at least 0.3 for U4A U7C G8A U10C ?
a: 1.0

q: Reported exon inclusion enrichment index reaches at least 0.3 for G5A U7C G8A U10C C36G A37C ?
a: 1.0

q: Reported exon inclusion enrichment index reaches at least 0.3 for U3C C6A U7A C9A U10A ?
a: 1.0

q: Reported exon inclusion enrichment index reaches at least 0.3 for G5C C6G U7C U10C C16U ?
a: 1.0

q: Reported exon inclusion enrichment index reaches at least 0.3 for G5U G8U C9U G33A G34A ?
a: 0.0

q: Reported exon inclusion enrichment index reaches at least 0.3 for G5A U7C G8A U10C G41U G42U ?
a: 1.0

q: Reported exon inclusion enrichment index reaches at least 0.3 for G5U G8U C9U G28A A29G ?
a: 0.0

q: Reported exon inclusion enrichment index reaches at least 0.3 for G5U G8U C9U U32A G33C ?
a: 0.0

q: Reported exon inclusion enrichment index reaches at least 0.3 for G5U G8U C9U G42A G43U ?
a: 1.0

q: Reported exon inclusion enrichment index reaches at least 0.3 for A23G C24A ?
a: 1.0

q: Reported exon inclusion enrichment index reaches at least 0.3 for G5U G8U C9U G13U A14G ?
a: 0.0

q: Reported exon inclusion enrichment index reaches at least 0.3 for G5C C6U G8C C9U U10C A31G ?
a: 1.0

q: Reported exon inclusion enrichment index reaches at least 0.3 for G5C C6G U7C U10C G28C A29G ?
a: 1.0

q: Reported exon inclusion enrichment index reaches at least 0.3 for G42C G43U ?
a: 1.0

q: Reported exon inclusion enrichment index reaches at least 0.3 for U27G G28C ?
a: 0.0

q: Reported exon inclusion enrichment index reaches at least 0.3 for C6A U7A C9A U10A G11U ?
a: 1.0

q: Reported exon inclusion enrichment index reaches at least 0.3 for C6A U7A C9A U10A G41A G42U ?
a: 1.0

q: Reported exon inclusion enrichment index reaches at least 0.3 for G5C C6G U7C U10C G11U G12U ?
a: 1.0

q: Reported exon inclusion enrichment index reaches at least 0.3 for C6A U7C C9A U10C G43C C44G ?
a: 1.0

q: Reported exon inclusion enrichment index reaches at least 0.3 for G5A C6G U7G C9A A30G A31U ?
a: 0.0

q: Reported exon inclusion enrichment index reaches at least 0.3 for G33U G34A ?
a: 0.0

q: Reported exon inclusion enrichment index reaches at least 0.3 for G5A C6G U7G C9A A39C A40U ?
a: 0.0

q: Reported exon inclusion enrichment index reaches at least 0.3 for G5U U7A C9U ?
a: 0.0

q: Reported exon inclusion enrichment index reaches at least 0.3 for G5A U7C G8A U10C G12C G13U ?
a: 0.0

q: Reported exon inclusion enrichment index reaches at least 0.3 for G5C C6A U7C G8A U10A U17A C18U ?
a: 0.0

q: Reported exon inclusion enrichment index reaches at least 0.3 for G5A C6G U7G C9A G15U C16A ?
a: 0.0

q: Reported exon inclusion enrichment index reaches at least 0.3 for G5A C6U U7A G8U C9U ?
a: 0.0

q: Reported exon inclusion enrichment index reaches at least 0.3 for C6A U7C C9A U10C C19G A20G ?
a: 1.0

q: Reported exon inclusion enrichment index reaches at least 0.3 for C6A U7C C9A U10C C24A A25G ?
a: 1.0

q: Reported exon inclusion enrichment index reaches at least 0.3 for C6A U7A C9A U10A C36G ?
a: 1.0

q: Reported exon inclusion enrichment index reaches at least 0.3 for `U10G` ?
a: 1.0

q: Reported exon inclusion enrichment index reaches at least 0.3 for G5C C6G U7C U10C C22G A23C ?
a: 1.0

q: Reported exon inclusion enrichment index reaches at least 0.3 for G5C C6A U7C G8A G11C ?
a: 1.0

q: Reported exon inclusion enrichment index reaches at least 0.3 for G5C C6U G8C C9U U10C G46C A47G ?
a: 1.0

q: Reported exon inclusion enrichment index reaches at least 0.3 for U4A G5C C6A U7A C9A U10A ?
a: 1.0

q: Reported exon inclusion enrichment index reaches at least 0.3 for G5A C6G U7G C9A C22G A23U ?
a: 0.0

q: Reported exon inclusion enrichment index reaches at least 0.3 for C6A U7A C9A U10A A20C G21A ?
a: 0.0

q: Reported exon inclusion enrichment index reaches at least 0.3 for C6A U7C C9A U10C A40C G41A ?
a: 1.0

q: Reported exon inclusion enrichment index reaches at least 0.3 for G5A C6G U7G C9A A23G C24U ?
a: 0.0

q: Reported exon inclusion enrichment index reaches at least 0.3 for U3C U4C C6A U7C C9A U10C ?
a: 1.0

q: Reported exon inclusion enrichment index reaches at least 0.3 for C6A U7C C9A U10C G13C A14C ?
a: 1.0

q: Reported exon inclusion enrichment index reaches at least 0.3 for G5A C6U U7A G8U C9A G21C ?
a: 0.0

q: Reported exon inclusion enrichment index reaches at least 0.3 for G5U G8U C9U A39C A40U ?
a: 0.0

q: Reported exon inclusion enrichment index reaches at least 0.3 for G5C C6A U7C G8A U10A A47C G48U ?
a: 0.0

q: Reported exon inclusion enrichment index reaches at least 0.3 for A25C G26U ?
a: 1.0

q: Reported exon inclusion enrichment index reaches at least 0.3 for C6A U7C G8A U10C ?
a: 1.0

q: Reported exon inclusion enrichment index reaches at least 0.3 for G5A U7C G8A U10C A25C G26A ?
a: 1.0

q: Reported exon inclusion enrichment index reaches at least 0.3 for G5A C6G U7G C9A A47G ?
a: 0.0

q: Reported exon inclusion enrichment index reaches at least 0.3 for G5C C6A U7C G8A U10A A47G G48A ?
a: 0.0

q: Reported exon inclusion enrichment index reaches at least 0.3 for U4A G5C C6G U7C U10C ?
a: 1.0

q: Reported exon inclusion enrichment index reaches at least 0.3 for C6A U7C C9G U10C ?
a: 1.0

q: Reported exon inclusion enrichment index reaches at least 0.3 for G5C C6A U7C G8A U10A G38U A39C ?
a: 0.0

q: Reported exon inclusion enrichment index reaches at least 0.3 for G5A C6G U7G C9A U32G ?
a: 0.0

q: Reported exon inclusion enrichment index reaches at least 0.3 for G5A C6G U7G C9A G28C A29C ?
a: 0.0

q: Reported exon inclusion enrichment index reaches at least 0.3 for G5U G8U C9U C22A A23C ?
a: 1.0

q: Reported exon inclusion enrichment index reaches at least 0.3 for U4G G5U C6A U7C G8A U10A ?
a: 0.0

q: Reported exon inclusion enrichment index reaches at least 0.3 for G5C C6G U7C G11C ?
a: 1.0

q: Reported exon inclusion enrichment index reaches at least 0.3 for G5C C6U G8C ?
a: 1.0

q: Reported exon inclusion enrichment index reaches at least 0.3 for G5U G8U C9U C44A ?
a: 1.0

q: Reported exon inclusion enrichment index reaches at least 0.3 for G5A U7C G8C U10C ?
a: 1.0

q: Reported exon inclusion enrichment index reaches at least 0.3 for G5U G8U C9U G26U ?
a: 0.0

q: Reported exon inclusion enrichment index reaches at least 0.3 for U3C U4C G5U G8U C9U ?
a: 1.0

q: Reported exon inclusion enrichment index reaches at least 0.3 for G5A U7C G8A U10C G11A ?
a: 1.0

q: Reported exon inclusion enrichment index reaches at least 0.3 for G5A C6G U7G C9A U17C ?
a: 0.0

q: Reported exon inclusion enrichment index reaches at least 0.3 for G5A C6G U7G C9A U32C ?
a: 0.0

q: Reported exon inclusion enrichment index reaches at least 0.3 for C6A U7A C9A U10A A31C U32C ?
a: 1.0

q: Reported exon inclusion enrichment index reaches at least 0.3 for G5C C6A U7C G8A U10A A35U C36G ?
a: 0.0

q: Reported exon inclusion enrichment index reaches at least 0.3 for G5A C6G U7G C9A G46C A47G ?
a: 0.0

q: Reported exon inclusion enrichment index reaches at least 0.3 for G5A C6G U7G C9A G26C U27C ?
a: 0.0

q: Reported exon inclusion enrichment index reaches at least 0.3 for G5C C6G G8C U10C ?
a: 1.0

q: Reported exon inclusion enrichment index reaches at least 0.3 for G5C C6A U7C G8A U10A A31C U32A ?
a: 0.0

q: Reported exon inclusion enrichment index reaches at least 0.3 for G5U G8U C9U G13A A14U ?
a: 1.0

q: Reported exon inclusion enrichment index reaches at least 0.3 for G5A U7C G8A U10C G11U ?
a: 1.0

q: Reported exon inclusion enrichment index reaches at least 0.3 for G5A C6U U7A G8U C9A A39U ?
a: 0.0

q: Reported exon inclusion enrichment index reaches at least 0.3 for G5C C6U G8C C9U U10C C44U ?
a: 1.0
